Reference for the values: paper PMC11990103

System: LNCaP prostate cancer cell line
Assay: MTT cytotoxicity assay
Type: cell-based, human
Conditions: MTT, 48 h treatment
pIC50: −log10 of the molar value.
pIC50 reference
MEASURED QUANTITY: pIC50

[
  {
    "COMPOUND": "O=C(COc1ccc(F)cc1)NNC(=S)Nc1cccc(Cl)c1",
    "REPORTED VALUE": 3.76
  },
  {
    "COMPOUND": "O=C(COc1ccc(F)cc1)NNC(=S)Nc1ccc(Cl)cc1Cl",
    "REPORTED VALUE": 3.81
  },
  {
    "COMPOUND": "N.N.[Cl][Pt][Cl] [Cisplatin, reference compound]",
    "REPORTED VALUE": 4.50
  },
  {
    "COMPOUND": "O=C(COc1ccc(F)cc1)NNC(=S)Nc1ccccc1Cl",
    "REPORTED VALUE": 3.97
  },
  {
    "COMPOUND": "O=C(COc1ccc(F)cc1)NNC(=S)Nc1ccc(Cl)cc1",
    "REPORTED VALUE": 3.59
  },
  {
    "COMPOUND": "O=C(COc1ccc(F)cc1)NNC(=S)Nc1ccc(Cl)c(Cl)c1",
    "REPORTED VALUE": 3.92
  },
  {
    "COMPOUND": "O=C(COc1ccc(F)cc1)NNC(=S)Nc1ccccc1",
    "REPORTED VALUE": 3.60
  }
]

###

Test system: SK-MEL28 melanoma cell line
Experiment: MTT cytotoxicity assay
Assay type: cell-based, human
Conditions: 48 h treatment

[
  {
    "COMPOUND": "O=C(COc1ccc(F)cc1)NNC(=S)Nc1cccc(Cl)c1",
    "RESULT MODIFIER": "=",
    "IC50 (µM)": 302
  },
  {
    "COMPOUND": "O=C(COc1ccc(F)cc1)NNC(=S)Nc1ccc(Cl)cc1Cl",
    "RESULT MODIFIER": "=",
    "IC50 (µM)": 297
  },
  {
    "COMPOUND": "O=C(COc1ccc(F)cc1)NNC(=S)Nc1ccc(Cl)cc1",
    "RESULT MODIFIER": "=",
    "IC50 (µM)": 322
  },
  {
    "COMPOUND": "O=C(COc1ccc(F)cc1)NNC(=S)Nc1ccccc1Cl",
    "RESULT MODIFIER": "=",
    "IC50 (µM)": 470
  },
  {
    "COMPOUND": "N.N.[Cl][Pt][Cl] [Cisplatin, reference compound]",
    "RESULT MODIFIER": "=",
    "IC50 (µM)": 25.8
  },
  {
    "COMPOUND": "O=C(COc1ccc(F)cc1)NNC(=S)Nc1ccccc1",
    "RESULT MODIFIER": ">",
    "IC50 (µM)": 500
  },
  {
    "COMPOUND": "O=C(COc1ccc(F)cc1)NNC(=S)Nc1ccc(Cl)c(Cl)c1",
    "RESULT MODIFIER": "=",
    "IC50 (µM)": 195
  }
]

###

System: DU-145 prostate cancer cell line
Experiment: MTT cytotoxicity assay
Format: cell-based, human
Details: 48 h treatment
# Met = IC50 below 300 µM (exclusive); Not met = IC50 at/above 300 µM

[
  {
    "COMPOUND": "O=C(COc1ccc(F)cc1)NNC(=S)Nc1ccccc1Cl [AB2]",
    "DISCRETE LABEL": "Not met"
  },
  {
    "COMPOUND": "O=C(COc1ccc(F)cc1)NNC(=S)Nc1ccc(Cl)cc1Cl [AB5]",
    "DISCRETE LABEL": "Not met"
  },
  {
    "COMPOUND": "O=C(COc1ccc(F)cc1)NNC(=S)Nc1cccc(Cl)c1 [AB3]",
    "DISCRETE LABEL": "Met"
  },
  {
    "COMPOUND": "O=C(COc1ccc(F)cc1)NNC(=S)Nc1ccccc1 [AB1]",
    "DISCRETE LABEL": "Not met"
  },
  {
    "COMPOUND": "O=C(COc1ccc(F)cc1)NNC(=S)Nc1ccc(Cl)c(Cl)c1 [AB6]",
    "DISCRETE LABEL": "Not met"
  },
  {
    "COMPOUND": "N.N.[Cl][Pt][Cl] [Cisplatin, reference compound]",
    "DISCRETE LABEL": "Met"
  }
]

###

Tested on: PC-3 prostate cancer cell line
Assay: MTT cytotoxicity assay
Assay type: cell-based, human
Conditions: 48 h treatment
pIC50: −log10 of the molar value.
pIC50 reference

[
  {
    "MOLECULE": "O=C(COc1ccc(F)cc1)NNC(=S)Nc1ccccc1Cl",
    "RESULT MODIFIER": "<",
    "pIC50": 3.30
  },
  {
    "MOLECULE": "O=C(COc1ccc(F)cc1)NNC(=S)Nc1ccc(Cl)c(Cl)c1",
    "RESULT MODIFIER": "=",
    "pIC50": 3.41
  },
  {
    "MOLECULE": "O=C(COc1ccc(F)cc1)NNC(=S)Nc1cccc(Cl)c1",
    "RESULT MODIFIER": "=",
    "pIC50": 3.33
  },
  {
    "MOLECULE": "O=C(COc1ccc(F)cc1)NNC(=S)Nc1ccccc1",
    "RESULT MODIFIER": "<",
    "pIC50": 3.30
  },
  {
    "MOLECULE": "O=C(COc1ccc(F)cc1)NNC(=S)Nc1ccc(Cl)cc1Cl",
    "RESULT MODIFIER": "=",
    "pIC50": 3.40
  },
  {
    "MOLECULE": "O=C(COc1ccc(F)cc1)NNC(=S)Nc1ccc(Cl)cc1",
    "RESULT MODIFIER": "=",
    "pIC50": 3.45
  },
  {
    "MOLECULE": "N.N.[Cl][Pt][Cl] [Cisplatin, reference compound]",
    "RESULT MODIFIER": "=",
    "pIC50": 4.28
  }
]
